- Tested on: A549/ATCC NSCLC
- assay-details: NCI-60 one-dose screen, 48 h
- measurement-parameters: 10 µM unless noted
Compounds without any hit were thinned out: in the full panel of roughly 83,000, 20% have a hit. Activity calls are given as the source filed them. The calls were made as follows: active = growth percent below 10; inactive = the rest.
Classes used: active, inactive

- molecule: "CN(C)CCNC(=O)c1ccc(-c2nc3ccc4[nH]ncc4c3c3c2C2CCC3C2)cc1 (centres undefined)"
  label-value: "inactive"
- molecule: "N#Cc1nc(-c2ccc(F)cc2)oc1S(=O)(=O)N1CCOCC1"
  label-value: "inactive"
- molecule: "COC(=O)C1Cc2ccccc2CN1C(=O)c1ccc2c(c1)Cc1ccccc1-2 (centres undefined)"
  label-value: "inactive"
- molecule: "CCNCCNc1cc(C2CCCCC2)c(C#N)c2nc3ccccc3n12"
  label-value: "active"
- molecule: "Cc1ccc(-c2nc([P+](c3ccccc3)(c3ccccc3)c3ccccc3)c(S(=O)(=O)c3ccc(C)cc3)o2)cc1"
  label-value: "inactive"
- molecule: "COC(=O)[C@@H](CCCCNC(=O)[C@]12CCC(C)(C)C[C@@H]1C1=CC[C@@H]3[C@@]4(C)C/C(=C/c5ccco5)C(=O)C(C)(C)[C@@H]4CC[C@@]3(C)[C@]1(C)CC2)NC(=O)[C@]12CCC(C)(C)C[C@@H]1C1=CC[C@@H]3[C@@]4(C)C/C(=C/c5ccco5)C(=O)C(C)(C)[C@@H]4CC[C@@]3(C)[C@]1(C)CC2"
  label-value: "inactive"
- molecule: "COc1ccc(/C=C(\\C#N)n2nnc3ccc(Cl)cc32)cc1"
  label-value: "inactive"
- molecule: "CN(/C(N)=N/N=C/c1c2ccccc2cc2ccccc12)C1CCCCC1"
  label-value: "inactive"
- molecule: "CC1OC(n2c3ccccc3c3c4c(c5c6ccccc6[nH]c5c32)C(=O)N(CCN2CCCC2)C4=O)CC(O)C1O (centres undefined)"
  label-value: "inactive"

Reference source: PubChem BioAssay (NCI)
